# System: grass carp pituitary cells
# assay-method-text: Signal transduction: pathway inhibitors on GnRH-induced anorectic gene mRNA
# Assay type: cell-based, grass carp (Ctenopharyngodon idellus)
# condition-notes: cotreated with GnRH3, 24 h; U73122 10 μM, GF109203X 20 μM, 2-APB 100 μM, MDL12330A 20 μM, H89 20 μM, nifedipine 10 μM, calmidazolium 1 μM, KN62 5 μM
measured-quantity: blockade of GnRH3-induced POMCb, CART2, UTS1, NMBa, NMBb, and LEPR mRNA expression

INSERT INTO results (compound, value_measured) VALUES
  ('CN([C@@H](Cc1ccc(OS(=O)(=O)c2cccc3cnccc23)cc1)C(=O)N1CCN(c2ccccc2)CC1)S(=O)(=O)c1cccc2cnccc12', 'could block'),
  ('NCCOB(c1ccccc1)c1ccccc1', 'could block'),
  ('Clc1ccc(C(c2ccc(Cl)cc2)n2cc[n+](CC(OCc3ccc(Cl)cc3Cl)c3ccc(Cl)cc3Cl)c2)cc1 (centres unmarked)', 'could block'),
  ('CN(C)CCCn1cc(C2=C(c3c[nH]c4ccccc34)C(=O)NC2=O)c2ccccc21 [GF109203X]', 'could block'),
  ('COC(=O)C1=C(C)NC(C)=C(C(=O)OC)C1c1ccccc1[N+](=O)[O-]', 'could block');

Ask | // returns reported blockade of GnRH3-induced POMCb, CART2, UTS1, NMBa, NMBb, and LEPR mRNA expression for input COc1ccc2c(c1)CC[C@@H]1[C@@H]2CC[C@]2(C)[C@@H](NCCCCCCN3C(=O)C=CC3=O)CC[C@@H]12
Reply | could block

Ask | Bench note: what blockade of GnRH3-induced POMCb, CART2, UTS1, NMBa, NMBb, and LEPR mRNA expression did Cl.c1ccc(C2CCCC2NC2=NCCCCCCCCCCC2)cc1 (centres unmarked) [MDL12330A] show?
Reply | could block

Ask | Find the recorded blockade of GnRH3-induced POMCb, CART2, UTS1, NMBa, NMBb, and LEPR mRNA expression belonging to O=S(=O)(NCCNC/C=C/c1ccc(Br)cc1)c1cccc2cnccc12 and report it.
Reply | could block
